measurement.notes: Inhibition of bovine brain tubulin assembly after 20 mins
Parameters: species or system Bos taurus
parameter.measured: IC50 (nM)
Number in nM, nothing else.

Look at this molecule and give its reported IC50. COc1ccc(/C=C\c2cc(OC)c(OC)c(OC)c2)c(O)c1O
1100

FYI, the data here is from ChEMBL document CHEMBL1165983.
